Data origin: ChEMBL document CHEMBL1137872

Target: Cathepsin S (Homo sapiens)
Sequence (P25774 whole entry): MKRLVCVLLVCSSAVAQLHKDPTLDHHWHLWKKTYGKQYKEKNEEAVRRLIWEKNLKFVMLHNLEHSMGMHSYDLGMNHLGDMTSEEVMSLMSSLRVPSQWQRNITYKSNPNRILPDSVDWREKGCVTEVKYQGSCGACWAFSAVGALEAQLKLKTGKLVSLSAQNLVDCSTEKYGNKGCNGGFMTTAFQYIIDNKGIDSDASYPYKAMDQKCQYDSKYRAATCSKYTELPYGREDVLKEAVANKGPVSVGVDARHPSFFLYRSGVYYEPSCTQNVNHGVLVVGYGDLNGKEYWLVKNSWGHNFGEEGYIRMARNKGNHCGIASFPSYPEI
pIC50: −log10 of the molar value.
PROPERTY_NAME: pIC50

COMPOUND_SMILES: C[C@@H](NC(=O)C(=O)[C@H](CCCCNC(=O)N1CCOCC1)NC(=O)OCC1(Cc2ccc(F)cc2)CCC1)c1ccccc1
SYSTEM: Cathepsin S (Homo sapiens)
PROPERTY_NAME: pIC50
MEASURED_VALUE: 7.57
//
COMPOUND_SMILES: CCCC[C@H](NC(=O)OCC(C)(C)c1ccccc1)C(=O)C(=O)N[C@H](C)c1ccccc1
SYSTEM: Cathepsin S (Homo sapiens)
PROPERTY_NAME: pIC50
MEASURED_VALUE: 6.57
//
COMPOUND_SMILES: CN(C)S(=O)(=O)NCCCC[C@H](NC(=O)OCC1(Cc2ccc(F)cc2)CCC1)C(=O)C(=O)NCc1cccnc1
SYSTEM: Cathepsin S (Homo sapiens)
PROPERTY_NAME: pIC50
MEASURED_VALUE: 6.89
//
COMPOUND_SMILES: CCCC[C@H](NC(=O)OCC(C)(C)Cc1ccccc1)C(=O)C(=O)N[C@H](C)c1ccccc1
SYSTEM: Cathepsin S (Homo sapiens)
PROPERTY_NAME: pIC50
MEASURED_VALUE: 7.70
//
COMPOUND_SMILES: CCCC[C@H](NC(=O)OC1(Cc2ccccc2)CCCC1)C(=O)C(=O)N[C@H](C)c1ccccc1
SYSTEM: Cathepsin S (Homo sapiens)
PROPERTY_NAME: pIC50
MEASURED_VALUE: 6.37

###

Assay: Steady state volume of distribution in rats
Type: ADME, organism-based
Conditions: rat, in vivo; read-out: Vss
// Vd lookup, one value per entry
PROPERTY_NAME: Vd

COMPOUND_SMILES: CNC(=O)NCCCC[C@H](NC(=O)OCC1(Cc2c(F)cccc2F)CCC1)C(=O)C(=O)N[C@H](C)c1ccccc1
PROPERTY_NAME: Vd
MEASURED_VALUE: 1.6 L/kg
--
COMPOUND_SMILES: C[C@@H](NC(=O)C(=O)[C@H](CCCCNC(=O)N1CCOCC1)NC(=O)OCC1(Cc2ccc(F)cc2)CCC1)c1ccccc1
PROPERTY_NAME: Vd
MEASURED_VALUE: 4.2 L/kg
--
COMPOUND_SMILES: CN(C)S(=O)(=O)NCCCC[C@H](NC(=O)OCC1(Cc2ccc(F)cc2)CCC1)C(=O)C(=O)NCc1cccnc1
PROPERTY_NAME: Vd
MEASURED_VALUE: 0.42 L/kg
--
COMPOUND_SMILES: C[C@@H](NC(=O)C(=O)[C@H](CCCCNC(=O)N1CCOCC1)NC(=O)OCC1(Cc2ccncc2)CCC1)c1ccccc1
PROPERTY_NAME: Vd
MEASURED_VALUE: 0.66 L/kg

###

Target: Cathepsin (L and K) (Homo sapiens) (UniProt P43235+P07711)
Test: Relative binding to human cathepsins L and K
Format: protein assay

COMPOUND_SMILES: CCCC[C@H](NC(=O)OCC1(Cc2ccccc2)CCC1)C(=O)C(=O)N[C@H](C)c1ccccc1
SIGN: =
Ratio: 150

COMPOUND_SMILES: CCCC[C@H](NC(=O)OCC1(Cc2ccc(F)cc2)CCC1)C(=O)C(=O)Nc1ccn[nH]1
SIGN: >
Ratio: 600

COMPOUND_SMILES: CCCC[C@H](NC(=O)OCC(C)(C)c1ccccc1)C(=O)C(=O)N[C@H](C)c1ccccc1
SIGN: =
Ratio: 46

COMPOUND_SMILES: CN(C)S(=O)(=O)NCCCC[C@H](NC(=O)OCC1(Cc2ccc(F)cc2)CCC1)C(=O)C(=O)NCc1cccnc1
SIGN: >
Ratio: 120

COMPOUND_SMILES: CCCC[C@H](NC(=O)OCC1(CCCc2ccccc2)CCC1)C(=O)C(=O)N[C@H](C)c1ccccc1
SIGN: >
Ratio: 120
